- ASSAY SYSTEM: Recombinant human cathepsin A (Homo sapiens, UniProt P10619)
- Construct: Recombinant human cathepsin A (residues 29-480, with a C-terminal 10-His tag); 10-His (C); purchased R&D Systems 1049-SE
- Sequence (P10619 29-312 limits assumed): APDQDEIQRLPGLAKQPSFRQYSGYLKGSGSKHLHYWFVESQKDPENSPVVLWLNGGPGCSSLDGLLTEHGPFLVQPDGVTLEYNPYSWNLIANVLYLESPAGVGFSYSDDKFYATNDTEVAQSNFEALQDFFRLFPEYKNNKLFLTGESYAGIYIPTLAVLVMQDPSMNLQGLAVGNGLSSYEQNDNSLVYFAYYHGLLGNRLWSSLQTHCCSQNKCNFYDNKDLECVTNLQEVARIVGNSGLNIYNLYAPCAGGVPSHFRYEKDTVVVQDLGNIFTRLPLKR
- Sequence (P10619 327-480 limits assumed): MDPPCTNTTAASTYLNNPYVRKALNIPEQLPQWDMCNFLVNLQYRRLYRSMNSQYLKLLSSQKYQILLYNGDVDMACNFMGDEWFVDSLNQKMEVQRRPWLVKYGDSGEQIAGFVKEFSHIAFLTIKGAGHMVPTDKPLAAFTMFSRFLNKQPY
- METHOD: Cathepsin A inhibitory activity
- Type: biochemical
- CONDITION SET: read-out: Activity (2): Cathepsin A inhibitory activity, IC50 class
pIC50: −log10 of the molar value.
VALUE KIND: pIC50

These recorded examples may help you get a feel for the data.
O=C(O)CC(NC(=O)c1cc(O)n(-c2ccc(F)cc2F)n1)c1cccc(C(F)(F)F)c1F (stereo not shown) ... > 7.00
O=C(O)CC(NC(=O)c1cc(O)n(-c2ccc(F)cc2)n1)c1cccc(Cl)c1F (stereo not shown) ... 6.00 to 7.00
Cc1ccc(C)c(-n2nc(C(=O)NC(CC(=O)O)C(C)C)cc2O)c1 (stereo not shown) ... 4.52 to 6.00
COc1ccccc1[C@H](CC(=O)O)NC(=O)c1cc(O)n(-c2ccc(Cl)cc2)n1 ... 4.52 to 6.00
CC(C)(C)c1ccc(C(CC(=O)O)NC(=O)c2cc(O)n(-c3ccccc3)n2)cc1 (stereo not shown) ... 4.52 to 6.00

Consider the compound N#Cc1cccc([C@H](CC(=O)O)NC(=O)c2cc(O)n(-c3ccc(F)cc3F)n2)c1 and give its measured pIC50.
6.00 to 7.00

Consider the compound CC(C)(C)[C@](C)(O)COc1cc(C(=O)N[C@@H](CC(=O)O)c2cccc(Cl)c2)nn1-c1ccccc1F and give its measured pIC50.
> 7.00

Consider the compound O=C(O)CC(NC(=O)c1cc(O)n(-c2ccccc2)n1)c1cccc(Cl)c1 (stereo not shown) and give its measured pIC50.
6.00 to 7.00

Consider the compound N#Cc1cccc([C@H](CC(=O)O)NC(=O)c2cc(O)n(-c3ccc(F)cc3)n2)c1 and give its measured pIC50.
4.52 to 6.00

Consider the compound COc1ccccc1[C@H](CC(=O)O)NC(=O)c1cc(O)n(-c2cccc(F)c2)n1 and give its measured pIC50.
6.00 to 7.00
